The values you see were collected from paper PMC10787790.

Here the recorded remaining activity at 10 µM is given for each entry.
Target: MAO-A (Homo sapiens)
Assay: MAO-A inhibition assay (continuous, kynuramine)
Conditions: read-out: Residual activity at 10 µM (%) MAO-A
Kindly provide the numeric value in % only, without the unit symbol.

Sample answers from the record:
chem_smiles=O=C1Nc2ccc(Cl)cc2/C1=N/NC(=O)c1ccc(F)cc1 study_target="MAO-A (Homo sapiens)" readout_type="remaining activity at 10 µM" readout_units=% test_value=43.7
chem_smiles=O=C1Nc2ccc(Br)cc2/C1=N/NC(=O)c1ccc(F)cc1 study_target="MAO-A (Homo sapiens)" readout_type="remaining activity at 10 µM" readout_units=% test_value=70.1

## Input What measured remaining activity at 10 µM goes with "O=C1Nc2ccc(F)cc2/C1=N/NC(=O)c1ccc(F)cc1" ?
## Output 36.6

----------
Test system: SH-SY5Y cells
Test: MTT cytotoxicity assay
Type: cell-based, human
Conditions: Homo sapiens, 24 h
readout type: pIC50
Answer as the number alone; pIC50 is minus log10 of concentration in mol/L.

## Input What measured pIC50 goes with "O=C1Nc2ccccc2/C1=N/NC(=O)c1ccc(Br)cc1" ?
## Output 4.01

----------
Here the recorded Experimental Pe is given for each entry.
Experiment: Parallel artificial membrane permeability assay (PAMPA), BBB
Format: in vitro ADME
Conditions: pH 7.4

Sample answers from the record:
chem_smiles=O=C1Nc2ccccc2/C1=N/NC(=O)c1ccc(Br)cc1 readout_type="Experimental Pe" test_value="> 4 ×10⁻⁶ cm/s"
chem_smiles=O=C1Nc2ccccc2/C1=N/NC(=O)c1ccc(Cl)cc1 readout_type="Experimental Pe" test_value="> 4 ×10⁻⁶ cm/s"
chem_smiles=O=C1Nc2ccc(Cl)cc2/C1=N/NC(=O)c1ccccc1 readout_type="Experimental Pe" test_value="> 4 ×10⁻⁶ cm/s"

In the following, a different molecule is considered.
## Input What measured Experimental Pe goes with "O=C1Nc2ccc(Cl)cc2/C1=N/NC(=O)c1ccc(Br)cc1" ?
## Output > 4 ×10⁻⁶ cm/s

----------
Molecular target: MAO-B (Homo sapiens)
Sequence (P27338 1-520): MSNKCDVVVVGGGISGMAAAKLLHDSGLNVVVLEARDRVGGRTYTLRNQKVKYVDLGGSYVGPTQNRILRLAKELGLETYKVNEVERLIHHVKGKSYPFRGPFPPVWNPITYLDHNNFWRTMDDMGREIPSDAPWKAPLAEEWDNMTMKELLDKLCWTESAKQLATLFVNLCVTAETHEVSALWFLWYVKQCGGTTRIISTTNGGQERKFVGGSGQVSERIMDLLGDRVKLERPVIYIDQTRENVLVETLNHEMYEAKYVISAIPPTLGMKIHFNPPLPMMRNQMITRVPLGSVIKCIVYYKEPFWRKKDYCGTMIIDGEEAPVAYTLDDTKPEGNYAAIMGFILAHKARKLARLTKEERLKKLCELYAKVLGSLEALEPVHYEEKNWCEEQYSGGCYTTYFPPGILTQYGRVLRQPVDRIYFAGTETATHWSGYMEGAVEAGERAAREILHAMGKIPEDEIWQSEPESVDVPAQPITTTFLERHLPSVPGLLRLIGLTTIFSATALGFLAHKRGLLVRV
Assay: MAO-B inhibition assay (continuous, benzylamine)
Details: read-out: Residual activity at 10 µM (%) MAO-B
Here the recorded remaining activity at 10 µM is given for each entry.
Kindly provide the numeric value in % only, without the unit symbol.

Sample answers from the record:
molecule="O=C1Nc2ccc(Br)cc2/C1=N/NC(=O)c1ccc(Cl)cc1 [IS2]" study_target="MAO-B (Homo sapiens)" readout_units=% test_value=1.18
molecule="O=C1Nc2ccc(Br)cc2/C1=N/NC(=O)c1ccccc1 [IS1]" study_target="MAO-B (Homo sapiens)" readout_units=% test_value=22
molecule="O=C1Nc2ccc(Cl)cc2/C1=N/NC(=O)c1ccc(Br)cc1 [IS15]" study_target="MAO-B (Homo sapiens)" readout_units=% test_value=12.5
molecule="O=C1Nc2ccc(F)cc2/C1=N/NC(=O)c1ccc(Br)cc1 [IS11]" study_target="MAO-B (Homo sapiens)" readout_units=% test_value=53.2
molecule="O=C1Nc2ccc(F)cc2/C1=N/NC(=O)c1ccccc1 [IS9]" study_target="MAO-B (Homo sapiens)" readout_units=% test_value=45.6

## Input MAO-B (Homo sapiens) / remaining activity at 10 µM / O=C1Nc2ccc(Br)cc2/C1=N/NC(=O)c1ccc(Br)cc1 [IS3] : value?
## Output 1.04

## Input MAO-B (Homo sapiens) / remaining activity at 10 µM / O=C1Nc2ccccc2/C1=N/NC(=O)c1ccc(F)cc1 [IS8] : value?
## Output 67.4

----------
Sequence of the target: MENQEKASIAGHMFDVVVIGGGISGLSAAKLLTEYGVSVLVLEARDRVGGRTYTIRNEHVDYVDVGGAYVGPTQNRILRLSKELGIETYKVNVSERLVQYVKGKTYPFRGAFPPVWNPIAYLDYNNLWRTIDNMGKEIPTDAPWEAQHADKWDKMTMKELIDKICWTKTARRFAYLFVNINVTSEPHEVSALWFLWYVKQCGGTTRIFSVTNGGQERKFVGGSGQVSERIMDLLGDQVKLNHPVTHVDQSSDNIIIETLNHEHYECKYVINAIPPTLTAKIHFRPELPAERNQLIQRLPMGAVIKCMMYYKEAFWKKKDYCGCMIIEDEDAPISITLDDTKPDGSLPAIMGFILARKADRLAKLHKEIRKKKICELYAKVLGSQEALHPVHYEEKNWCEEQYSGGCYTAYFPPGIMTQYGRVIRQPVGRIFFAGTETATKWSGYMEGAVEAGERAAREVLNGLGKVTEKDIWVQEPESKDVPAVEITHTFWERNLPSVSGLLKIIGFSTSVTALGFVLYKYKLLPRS
pIC50: −log10 of the molar value.
# if value of pIC50 reaches 5, tag true; if it stays below, tag false

chem_smiles=O=C1Nc2ccc(Br)cc2/C1=N/NC(=O)c1ccc(Br)cc1 category=true

--- query ---
## Input Does the reported pIC50 for "O=C1Nc2ccc(Cl)cc2/C1=N/NC(=O)c1ccc(Br)cc1" fall at or above the 5 mark?
## Output true

----------
Target: MAO-B (Homo sapiens)
Assay: MAO-B inhibition assay (continuous, benzylamine)
Details: read-out: Residual activity at 10 µM (%) MAO-B
readout type: remaining activity at 10 µM (%)
Kindly provide the numeric value in % only, without the unit symbol.

Sample answers from the record:
compound="O=C1Nc2ccc(Cl)cc2/C1=N/NC(=O)c1ccc(F)cc1 [IS16]" study_target="MAO-B (Homo sapiens)" readout_type="remaining activity at 10 µM" readout_units=% test_value=26.1
compound="O=C1Nc2ccc(F)cc2/C1=N/NC(=O)c1ccc(Cl)cc1 [IS10]" study_target="MAO-B (Homo sapiens)" readout_type="remaining activity at 10 µM" readout_units=% test_value=42.6

## Input What measured remaining activity at 10 µM goes with O=C1Nc2ccc(Cl)cc2/C1=N/NC(=O)c1ccc(Cl)cc1 [IS14] ?
## Output 23

----------
Target: MAO-B (Homo sapiens)
Test: MAO-B inhibition assay (continuous, benzylamine)
Settings: (IC50 of MAO-A)/(IC50 of MAO-B); MAO-B compared to MAO-A
readout type: SI (selectivity index)
// response body must contain only the number

chem_smiles=O=C1Nc2ccc(F)cc2/C1=N/NC(=O)c1ccc(Cl)cc1 readout_type="SI (selectivity index)" test_value=4.58
chem_smiles=O=C1Nc2ccc(Br)cc2/C1=N/NC(=O)c1ccc(Cl)cc1 readout_type="SI (selectivity index)" test_value=34.03
chem_smiles=O=C1Nc2ccc(F)cc2/C1=N/NC(=O)c1ccc(F)cc1 readout_type="SI (selectivity index)" test_value=0.60
chem_smiles=O=C1Nc2ccc(Br)cc2/C1=N/NC(=O)c1ccc(F)cc1 readout_type="SI (selectivity index)" test_value=4.51

## Input MAO-B (Homo sapiens) / SI (selectivity index) / "O=C1Nc2ccccc2/C1=N/NC(=O)c1ccc(Br)cc1" : value?
## Output 233.85

----------
Here the recorded SI (selectivity index) is given for each entry.
Molecular target: MAO-B (Homo sapiens)
Assay: MAO-B inhibition assay (continuous, benzylamine)
Settings: (IC50 of MAO-A)/(IC50 of MAO-B); MAO-B compared to MAO-A
// response body must contain only the number

chem_smiles=O=C1Nc2ccc(Br)cc2/C1=N/NC(=O)c1ccc(Br)cc1 test_value=4.64
chem_smiles=O=C1Nc2ccc(Cl)cc2/C1=N/NC(=O)c1ccc(F)cc1 test_value=2.20
chem_smiles=O=C1Nc2ccc(Cl)cc2/C1=N/NC(=O)c1ccc(Br)cc1 test_value=5.50

## Input What measured SI (selectivity index) goes with "O=C1Nc2ccc(F)cc2/C1=N/NC(=O)c1ccc(Br)cc1" ?
## Output 1.30

## Input What measured SI (selectivity index) goes with "O=C1Nc2ccc(Cl)cc2/C1=N/NC(=O)c1ccc(Cl)cc1" ?
## Output 48.15

----------
Target: MAO-B (Homo sapiens)
Sequence (P27338 1-520): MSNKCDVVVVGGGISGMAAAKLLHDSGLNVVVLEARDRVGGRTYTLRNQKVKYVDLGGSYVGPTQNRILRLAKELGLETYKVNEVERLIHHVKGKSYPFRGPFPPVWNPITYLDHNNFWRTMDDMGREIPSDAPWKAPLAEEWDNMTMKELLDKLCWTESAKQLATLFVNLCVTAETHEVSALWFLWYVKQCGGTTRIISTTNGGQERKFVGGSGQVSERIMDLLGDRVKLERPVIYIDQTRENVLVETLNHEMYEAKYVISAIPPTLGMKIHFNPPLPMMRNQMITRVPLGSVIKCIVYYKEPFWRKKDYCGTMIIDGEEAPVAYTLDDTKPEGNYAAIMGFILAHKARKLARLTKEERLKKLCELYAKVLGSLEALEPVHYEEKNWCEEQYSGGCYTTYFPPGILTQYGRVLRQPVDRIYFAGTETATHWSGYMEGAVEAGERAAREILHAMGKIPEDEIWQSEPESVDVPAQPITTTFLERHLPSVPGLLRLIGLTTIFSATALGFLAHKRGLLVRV
readout type: pIC50
Answer as the number alone; pIC50 is minus log10 of concentration in mol/L.

Sample answers from the record:
molecule="O=C1Nc2ccc(F)cc2/C1=N/NC(=O)c1ccc(Cl)cc1 [IS10]" test_value=5.40
molecule="O=C1Nc2ccc(Br)cc2/C1=N/NC(=O)c1ccccc1 [IS1]" test_value=6.38
molecule="O=C1Nc2ccc(F)cc2/C1=N/NC(=O)c1ccccc1 [IS9]" test_value=5.04

In the following, a different molecule is considered.
## Input What measured pIC50 goes with O=C1Nc2ccc(F)cc2/C1=N/NC(=O)c1ccc(Br)cc1 [IS11] ?
## Output 4.98
